Test system: KM12 colon
Assay: NCI-60 one-dose screen, 48 h
Details: 10 µM unless noted
The panel holds about 83,000 compounds, 20% with a hit somewhere; the sample as a whole holds those more often. Active and inactive are the calls of the source. The calls were made as follows: active = growth percent below 10; inactive = the rest.
Log the outcome using a class from true (1) for active, false (0) for inactive

C=C(C)[C@@H]1CC[C@]2(C(=O)OCCOCCOCC[P+](c3ccccc3)(c3ccccc3)c3ccccc3)CC[C@]3(C)[C@H](CC[C@@H]4[C@@]5(C)CC[C@H](OC(=O)C(Cl)Cl)C(C)(C)[C@@H]5CC[C@]43C)[C@@H]12 | true (1)
C=C(C)[C@@H]1CC[C@]2(C(=O)OCCOCCOCC[P+](c3ccccc3)(c3ccccc3)c3ccccc3)CC[C@]3(C)[C@H](CC[C@@H]4[C@@]5(C)CC[C@H](OC(C)=O)C(C)(C)[C@@H]5CC[C@]43C)[C@@H]12 | true (1)

--- query ---
Exercise: Field: outcome | Entry: O=C1CC23OC4ON=C(Br)C4C2C(O)c2ccccc2N13 (stereo not drawn)
Key: false (0)

* * *

Test system: A549/ATCC NSCLC
Assay: NCI-60 one-dose screen, 48 h (100 = growth as untreated, 0 = no growth, -100 = all killed)
Details: 10 µM unless noted
This is part of a sample that, as a whole, favours compounds with a hit. Of some 83,000 tested, about 20% had one in any assay.
Param label: returns 1.0 when growth < 70%, returns 0.0 otherwise, including exact equality.

Take a look at these entries with their results.
CCCCn1c2cc(OCc3cn(-c4ccc(Cl)cc4)nn3)ccc2c2ccnc(C)c21 | 1.0
Nc1cc(N)nc(SCC(=O)O)n1 | 0.0
COC(=O)c1ccc2c(c1)n(Cc1ccc3ccccc3c1)c[n+]2Cc1ccc2ccccc2c1 | 0.0

Exercise: Does Oc1ccc(CNNc2ccnc3c(O)cccc23)c2cccnc12 have growth strictly under 70%?
Key: 1.0

Exercise: Does COc1cc(C2CC(c3ccc(Nc4nc(NCCO)nc(NCCO)n4)cc3)=NN2c2cc(Cl)cc(Cl)c2)cc(OC)c1OC (stereo not given) have growth strictly under 70%?
Key: 1.0

Exercise: Does C(=C\c1cn(-c2ccccc2)nc1-c1ccccc1)/c1nnc(-c2c[nH]c3ccccc23)o1 have growth strictly under 70%?
Key: 1.0

Exercise: Does CCOC(=O)c1cnn(-c2nc(-c3ccc(F)cc3)c(C#N)c(N3CCOCC3)n2)c1N have growth strictly under 70%?
Key: 0.0

Exercise: Does Cc1cc(O)cc(O)c1N=NC1=NCCS1 have growth strictly under 70%?
Key: 0.0

Exercise: Does Oc1ccccc1-c1nc2c3ccccc3c3ccccc3c2o1 have growth strictly under 70%?
Key: 0.0

* * *

Tested on: SF-539 CNS
Test: NCI-60 one-dose screen, 48 h
Settings: 10 µM unless noted
Compounds without any hit were thinned out: in the full panel of roughly 83,000, 20% have a hit. The source made the active and inactive calls. The calls were made as follows: active = growth percent below 10; inactive = the rest.
Log the outcome using a class from active, inactive

Take a look at these entries with their results.
N#Cc1c(NC(=O)c2cccs2)[n+]([O-])c2cc(C(F)(F)F)ccc2[n+]1[O-] | inactive
C[C@@H]1C(=O)[C@@H]2C[C@@H](O)[C@@H](O)C[C@]2(C)[C@H]2CC[C@@]3(C)C(=C12)CC[C@@H]3[C@@](C)(O)[C@H](O)CCC(C)(C)O | inactive
CC(C)CSc1nc(Nc2ccccc2)c(C#N)c(-c2ccc(F)cc2)n1 | inactive

Exercise: Field: outcome | Entry: O=C1C(Cl)=C(Nc2ccc3c(c2NC2=C(Cl)C(=O)c4ccccc4C2=O)C(=O)c2ccccc2C3=O)C(=O)c2ccccc21
Key: inactive

Exercise: Field: outcome | Entry: COc1ccc(C2CC(c3ccc(OC)cc3O)=NN2c2ccc(S(N)(=O)=O)cc2)cc1 (stereo not drawn)
Key: inactive

Exercise: Field: outcome | Entry: C[C@H]1[C@H](C)CC[C@]2(C(=O)OCCOCCOCC[P+](c3ccccc3)(c3ccccc3)c3ccccc3)CC[C@]3(C)C(=CC[C@@H]4[C@@]5(C)CC[C@H](OC(=O)C(Cl)Cl)C(C)(C)[C@@H]5CC[C@]43C)[C@H]12
Key: active

Exercise: Field: outcome | Entry: COc1ccc2oc(=O)cc(-c3nc4ccc(N)cc4[nH]3)c2c1
Key: inactive

Exercise: Field: outcome | Entry: O=C1CC(c2ccc(O)c(O)c2)Oc2cc(O)c([C@@H]3O[C@H](CO)[C@@H](O)[C@H](O)[C@H]3O)c(O)c21 (stereo partly drawn)
Key: inactive
